Where do the numbers come from? From PubChem BioAssay AID2599.

# Subject Of Test: Sentrin-specific protease 6 (Homo sapiens) (UniProt Q9GZR1)
# Sequence (Q9GZR1 628-1112 limits assumed): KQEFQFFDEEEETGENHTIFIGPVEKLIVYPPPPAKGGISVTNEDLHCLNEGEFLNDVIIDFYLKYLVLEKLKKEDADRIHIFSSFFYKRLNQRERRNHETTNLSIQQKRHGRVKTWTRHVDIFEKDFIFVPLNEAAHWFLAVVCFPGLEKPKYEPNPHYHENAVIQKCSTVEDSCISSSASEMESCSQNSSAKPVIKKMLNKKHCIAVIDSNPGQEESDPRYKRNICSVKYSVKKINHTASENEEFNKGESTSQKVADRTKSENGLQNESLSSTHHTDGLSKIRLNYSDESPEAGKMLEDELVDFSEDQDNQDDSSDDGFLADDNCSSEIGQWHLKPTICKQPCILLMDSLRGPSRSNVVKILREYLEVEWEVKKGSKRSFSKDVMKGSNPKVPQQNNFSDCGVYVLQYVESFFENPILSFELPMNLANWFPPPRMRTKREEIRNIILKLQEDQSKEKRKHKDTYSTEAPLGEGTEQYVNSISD
# Experiment Summary: SENP6 protease inhibitors, primary screen, biochemical, luminescence, uHTS (AID 2599);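 further: plate controls were DMSO wells with enzyme for no effect and DMSO wells lacking enzyme for full effect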
# Experimental Conditions: Recombinant SENP6 catalytic domain, aminoluciferin luminescence; at 10 µM; active compounds read high
Among all 330,000 compounds or so, about 5,800 (1.8%) were called active. This excerpt belongs to a sample that is enriched for actives.
Attribute Measured: inhibition (%)

molecule=C/C(=N\Nc1nc2ccccc2[nH]1)c1cccs1 attribute_measured=inhibition quantity_unit=% observed_measurement=60.7
molecule="COc1ccc(C2=NOC3(CC(=O)N(c4ccc(Cl)cc4)C3=O)C2)c(OC)c1 (stereo unspecified)" attribute_measured=inhibition quantity_unit=% observed_measurement=-7.66
molecule=Cc1cccc(NS(=O)(=O)c2ccc(C)c(C(N)=O)c2)c1 attribute_measured=inhibition quantity_unit=% observed_measurement=-6.03
molecule=COc1ccc(C(=O)O/N=C(\N)c2ccccn2)cc1[N+](=O)[O-] attribute_measured=inhibition quantity_unit=% observed_measurement=13
molecule=O=C(Oc1ccc(Br)cc1C(=S)N1CCOCC1)c1cccc([N+](=O)[O-])c1 attribute_measured=inhibition quantity_unit=% observed_measurement=-3.34
molecule="CC1CCC(CN2CCN=C2N(C)C)CC1 (stereo unspecified)" attribute_measured=inhibition quantity_unit=% observed_measurement=-19.7

----------
# Subject Of Test: Sentrin-specific protease 6 (Homo sapiens) (UniProt Q9GZR1)
# Experiment Summary: SENP6 protease inhibitors, primary screen, biochemical, luminescence, uHTS (AID 2599)
# Experimental Conditions: Recombinant SENP6 catalytic domain, aminoluciferin luminescence; at 10 µM; active compounds read high
Hit rate of the full screen: of about 330,000 compounds, about 5,800 (1.8%) were called active. What follows is part of a selection rich in actives, with near analogues and random picks from the rest.
This listing pairs compounds with measured inhibition.
Attribute Measured: inhibition (%)

smiles_data=COc1ccc(C(=O)Nc2ccc(F)cc2F)cc1 observed_measurement=76.1
smiles_data=S=c1[nH]nc(-c2cc(-c3ccsc3)n[nH]2)n1-c1ccccc1 observed_measurement=-13.8
smiles_data=COc1ccccc1-n1c(-c2cc(-c3ccco3)[nH]n2)n[nH]c1=S observed_measurement=8.36
smiles_data=COc1ccc2nc(Nc3nc4cc5c(cc4s3)OCCO5)sc2c1 observed_measurement=70.8
smiles_data=Cn1c(-c2ccco2)nc2cc3ccccc3cc21 observed_measurement=98.6
smiles_data=C=CCN(CC=C)C(=O)COC(=O)c1n[nH]c2ccccc12 observed_measurement=-20.6
smiles_data=COc1cc(OC)cc(C(=O)OCC(=O)Nc2ccc(F)cc2F)c1 observed_measurement=3.41

----------
# Subject Of Test: Sentrin-specific protease 6 (Homo sapiens) (UniProt Q9GZR1)
# Experiment Summary: SENP6 protease inhibitors, primary screen, biochemical, luminescence, uHTS (AID 2599);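 further: plate controls were DMSO wells with enzyme for no effect and DMSO wells lacking enzyme for full effect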
# Experimental Conditions: Recombinant SENP6 catalytic domain, aminoluciferin luminescence; at 10 µM
About 5,800 (1.8%) of roughly 330,000 compounds were called active.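 The calls were made as follows: active = inhibition above about 50% at the single tested dose (limit read from the data); inactive = the rest.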 The full list was thinned out, with actives kept by preference.
Classes used: 1 (active), 0 (inactive)

compound="CC(C)OCCCNC(=O)c1ccc(C2SCC(=O)N2Cc2ccco2)cc1 (stereo not drawn)" class=0
compound=C(=N\Nc1ccc2ccccc2n1)/c1ccc2c(c1)OCO2 class=1
compound=Cn1c(N)c(C(=O)COC(=O)/C=C/c2ccc(OC(F)F)cc2)c(=O)n(C)c1=O class=0
compound=O=C(c1cnccn1)N1CCN(S(=O)(=O)c2cccc(Cl)c2)CC1 class=0
compound=CC(=C/c1ccccc1)/C=N/NC(=O)c1cc(C)oc1C class=1
compound=CCCn1nnc(NC(=O)COc2ccc(CC)cc2)n1 class=0
compound=Cc1cccc(NC(=O)CSc2nnc(CCCCCNC(=O)OC(C)(C)C)o2)c1C class=0
compound="Cc1ccc(CNC(=O)CC2Sc3ccccc3NC2=O)cc1 (stereo not drawn)" class=0
compound=Cc1cccc(C(=O)Nc2nnc(S(=O)(=O)N3CCCCCC3)s2)c1 class=0
compound=Cc1noc(/C=C/c2ccco2)c1S(=O)(=O)N1CCC(C(=O)N2CCc3ccccc32)CC1 class=0
compound=Cc1cccc(NC(=O)/C=C/c2ccc3c(c2)OCO3)n1 class=1
compound=CC/C(=N\NC(=O)c1ccccc1Cl)c1ccc(Br)s1 class=0
compound="Cc1ccc(N2C(=O)C3C4C=CC(CC4)C3C2=O)cc1Cl (stereo not drawn)" class=0
compound=COc1cc(N=Cc2c(O)c3ccccc3oc2=O)c(OC)cc1Cl class=0
compound=Cc1ccc(OCc2nc3ccccc3n2C)cc1 class=1
compound="O=C(CC1C(=O)NCCN1C(=O)c1ccc([N+](=O)[O-])cc1)Nc1cccc(Cl)c1 (stereo not drawn)" class=0
compound=Cc1noc(C)c1/C=N/Nc1ccc2ccccc2n1 class=0
compound=CC(=O)N(c1ccc2oc(=O)sc2c1)S(=O)(=O)c1ccc(C)cc1 class=0
compound=Cc1ccc(-c2cc(C(=O)N/N=C/C=C/c3ccccc3)n[nH]2)o1 class=0
compound=N#CC1=C(N)C(C#N)(C#N)[C@H](c2ccsc2)[C@H]2COCC=C12 class=0
compound=Cc1cc(=O)[nH]c(N/N=C/c2ccc3c(c2)OCCO3)n1 class=0
compound=O=C(Cc1nc2ccccc2[nH]c1=O)c1ccc(Cl)cc1 class=1
compound=COc1ccccc1N=Cc1c(O)c2ccccc2oc1=O class=1
compound=O=C(Nc1nnc(S(=O)(=O)N2CCCCCC2)s1)c1cccc(Br)c1 class=1
compound=Cc1ccn2cc(-c3nonc3C)cc2c1 class=1
compound=COC(=O)c1scc(S(=O)(=O)C(C)(C)C)c1-n1cccc1 class=0
compound=COc1ccccc1N=C(C)C1=C(O)COC1=O class=0
compound=CN(C(=O)c1c(Cl)cnn1C)C12CC3CC(CC(C3)C1)C2 class=0
compound="COc1ccccc1NC(=O)C(C)OC(=O)c1ccc(-n2cnnn2)cc1 (stereo not drawn)" class=0
compound=Cc1csc(SCC(=O)Nc2sccc2C#N)n1 class=1
compound="O=C(CC1C(=O)NCCN1Cc1ccc(-c2ccccc2)cc1)NCc1ccncc1 (stereo not drawn)" class=0
compound=Cc1cccc(/C=N/NC(=O)CNc2cccc3ccccc23)n1 class=1
compound=O=c1/c(=C/c2ccc(CNS(=O)(=O)c3ccccc3)o2)sc2n1CCN=2 class=0
compound=Cc1cccc(C(=O)Nc2ccc(C(=O)N/N=C/c3cccc(C)n3)cc2)c1 class=0
compound=Cc1cc(C)c(NC(=O)CN2CCOCCOCCOCCOCC2)c(C)c1 class=0
compound=Cc1cccc(NC(=O)Nc2ccc3c(c2)OCO3)n1 class=0
compound="CC1CN(C(=S)Nc2cccc(F)c2)CC(C)O1 (stereo not drawn)" class=0
compound=Cc1c(C(N)=O)sc2ncn(CCOc3ccccc3)c(=O)c12 class=0

----------
This listing pairs compounds with measured inhibition.
# Subject Of Test: Sentrin-specific protease 6 (Homo sapiens)
# Experiment Summary: SENP6 protease inhibitors, primary screen, biochemical, luminescence, uHTS (AID 2599);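 further: plate controls were DMSO wells with enzyme for no effect and DMSO wells lacking enzyme for full effect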
# Experimental Conditions: Recombinant SENP6 catalytic domain, aminoluciferin luminescence; at 10 µM; active compounds read high
Among all 330,000 compounds or so, about 5,800 (1.8%) were called active. The sample holds actives, similar compounds and a random draw of the others, so the mix is not that of the screen.
Attribute Measured: inhibition (%)

compound=Cc1ccc2nc(-c3ccc(Br)cc3)cn2c1 quantity_unit=% observed_measurement=89.9
compound="CCC(C)CN1CCC(CO)(Cc2ccccc2Cl)CC1 (stereo not drawn)" quantity_unit=% observed_measurement=8.24
compound=O=C(c1cnn2ccccc12)N1CCc2ccccc21 quantity_unit=% observed_measurement=51
compound=CCN(CC)S(=O)(=O)c1ccc(-c2cn3ccc(C)cc3n2)cc1 quantity_unit=% observed_measurement=11.7
compound="CC1COC2C(O1)N(S(C)(=O)=O)CCN2S(C)(=O)=O (stereo not drawn)" quantity_unit=% observed_measurement=-1.6
compound=O=C(COc1ccc(NC(=O)c2ccccc2[N+](=O)[O-])cc1)c1ccc(F)cc1 quantity_unit=% observed_measurement=-17.5
compound="O=C(O)C1OC(C(=O)O)C2C1C(F)(F)C2(F)F (stereo not drawn)" quantity_unit=% observed_measurement=-10.3
compound=CCN1CCN(c2nc(Nc3cccc(F)c3)nc(N)c2[N+](=O)[O-])CC1 quantity_unit=% observed_measurement=-5.24
compound=Clc1ccc2nc(CSc3ccccc3)cn2c1 quantity_unit=% observed_measurement=72.1
compound=O=S(=O)(c1ccc(Br)c2ccccc12)N1CCOCC1 quantity_unit=% observed_measurement=-3.67
compound=COC(=O)c1ccccc1NC(=O)C1CCN(S(=O)(=O)c2cc(OC)ccc2OC)CC1 quantity_unit=% observed_measurement=-0.874
compound=O=C(CSc1ccccn1)Nc1nc2c(ccc3ccccc32)s1 quantity_unit=% observed_measurement=-10.2
compound=Cc1cnc(C(=O)OCC(=O)N2CCc3ccccc32)cn1 quantity_unit=% observed_measurement=0.963

----------
This listing pairs molecules with measured inhibition.
# Subject Of Test: Sentrin-specific protease 6 (Homo sapiens)
# Experiment Summary: SENP6 protease inhibitors, primary screen, biochemical, luminescence, uHTS (AID 2599);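 further: plate controls were DMSO wells with enzyme for no effect and DMSO wells lacking enzyme for full effect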
# Experimental Conditions: Recombinant SENP6 catalytic domain, aminoluciferin luminescence; at 10 µM; active compounds read high
Screen size: about 330,000 compounds; about 5,800 (1.8%) were called active. Only a selection was taken, and actives are over-represented in it overall.
Attribute Measured: inhibition (%)

molecule="CC(OC(=O)c1cc2ccccc2[nH]1)C(=O)N(C)c1ccccc1 (stereo not given)" attribute_measured=inhibition quantity_unit=% observed_measurement=-10.7
molecule=CC(C)C(=O)Nc1cccc(C(=O)Nc2ccc3c(c2)OCO3)c1 attribute_measured=inhibition quantity_unit=% observed_measurement=33.6
molecule=COCCNc1nnc(SCC(=O)NNC(=O)c2ccco2)s1 attribute_measured=inhibition quantity_unit=% observed_measurement=0.175
molecule=CN(c1ccccc1)S(=O)(=O)c1cc(C(=O)Nc2nc3ccccc3[nH]2)ccc1Cl attribute_measured=inhibition quantity_unit=% observed_measurement=0.946
molecule=O=C(Nc1ccccc1F)c1ccc2c(c1)OCO2 attribute_measured=inhibition quantity_unit=% observed_measurement=71.4
molecule=COc1ccc(C(=O)Nc2ccc(C3(C#N)CCCC3)cc2)cc1OC attribute_measured=inhibition quantity_unit=% observed_measurement=96.3
molecule=CCn1cc(-c2cc(C(=O)O)on2)c(C)n1 attribute_measured=inhibition quantity_unit=% observed_measurement=15.3
molecule=CN(C(=O)c1cccc(NC(=O)C2CCN(C(=O)OC(C)(C)C)CC2)c1)C1CCC1 attribute_measured=inhibition quantity_unit=% observed_measurement=-7.07
molecule=O=C(Nc1ccccc1)c1cc2ccccc2[nH]1 attribute_measured=inhibition quantity_unit=% observed_measurement=86.2
molecule=COc1ccc(C(=O)Nc2ccc3c(c2)OCO3)cc1OC attribute_measured=inhibition quantity_unit=% observed_measurement=80.8
